- System: Hepatitis C virus NS3 helicase
- Method notes: HCV NS3 helicase inhibitors, primary screen, biochemical, fluorescence polarization, ChemBridge library (AID 687043)
- Condition summary: NS3h Cy5-dT15 DNA binding, at 100 µM, stronger effect = higher value
In all, about 16,000 compounds went through this assay and about 250 (1.6%) were called active. The list comes from a sample in which actives are over-represented; it also holds close analogues and randomly drawn compounds.
Criterion: inhibition meeting or surpassing 10%. Met: criterion met. Not met: criterion not met.

# Compound, Assigned class
rows = [
    ("O=C1C2C3C=CC(C3)C2C(=O)N1/N=C\\c1ccc(-c2ccccc2[N+](=O)[O-])o1 (stereo unspecified)", "criterion met"),
    ("Cc1ccc2c(C)[n+](C)ccn12", "criterion met"),
    ("O=C(NCCCc1ccccc1)C1(c2ccccc2)CCCC1", "criterion met"),
]

API: above_or_equal(metric=inhibition, cutoff=10%) for item CSc1ccc(C(C2=C(O)CC(C)(C)CC2=O)C2C(=O)CC(C)(C)CC2=O)cc1 (stereo unspecified)
criterion not met

API: above_or_equal(metric=inhibition, cutoff=10%) for item O=C(Nc1ccc(Cl)c(Cl)c1)Nc1nnc(-c2ccc(F)cc2)s1
criterion met

API: above_or_equal(metric=inhibition, cutoff=10%) for item Oc1ccc(Br)cc1CN1CCN(Cc2ccccn2)CC1
criterion not met
